# test-details: qHTS RealTime-Glo MT Cell Viability Assay in HepG2 cells - 40 hour (AID 1224870); further: nearly all actives have a fitted effect of over 50% in size
# run-conditions: RealTime-Glo luminescence; series mostly up to 76.8 µM
Results filed as inconclusive are left out. Calls of active or inactive are those of the source. The call rests on the fitted dose curve; in most records, active means well fitted cell-killing curve with a large enough effect in the repeat runs; inconclusive means weak or mixed curves, or effect the other way; inactive means flat fitted curve, though single readings scatter.
Select the correct class. Options are t (active), f (inactive) and nothing else.

Task: How was CCCCCCCCCCc1ccccc1 classified in this test?
Output: f

Task: Returns: the outcome recorded for CCCOc1sc(C(=O)N2CCC(c3cc(CN)ccc3F)CC2)c(C)c1Br in this assay.
Output: t

Task: Could you kindly confirm the outcome this assay logged for ClC/C=C\CCl ?
Output: f

Task: Hi, do you know how Oc1c(Br)cc(Br)c2cccnc12 came out in this test?
Output: f

Task: What outcome does the record of this test show for CC(C)(C)CC(C)(C)c1ccccc1O ?
Output: f

Task: # fetch the recorded call for C=CC(=O)OCC(O)COc1ccccc1 (configuration not stated) here
Output: f

Task: Answer briefly: the call reported for CCN(CC)CCCN(c1ccccc1)C1Cc2ccccc2C1 in this assay.
Output: f
